- measuredOn: Trypsin (Homo sapiens, UniProt P07477+P07478+P35030)
- methodDescription: Inhibition of trypsin (unknown origin) at 50 uM using Boc-Val-Pro-Arg-AMC as substrate preincubated for 15 mins followed by substrate addition and measured for 15 mins by fluorimetric assay relative to control
- Assay type: protein assay
- experimentalConditions: 0.25 h, 50 µM
measuredQuantity: inhibition (INH)

Use the examples below as a reference point.
• CCCCCC(=O)N[C@H](C(=O)NCc1ccc(C#N)cc1)c1ccc(OCc2ccccc2)cc1 = Not Active
• CCCCCC(=O)N[C@H](C(=O)NCCN)c1ccc(OCc2ccccc2)cc1 = Not Active
• CCCCCC(=O)N[C@H](C(=O)NCc1ccc(NC(=N)N)cc1)c1ccccc1.O=C(O)C(F)(F)F = Not Active
• CCCCCC(=O)N[C@H](C(=O)NCc1ccccc1)c1ccc(OCc2ccccc2)cc1 = Not Active
• N=C(N)NCc1ccc(CNC(=O)[C@H](NC(=O)c2ccc(Oc3ccccc3)cc2)c2ccc(OCc3ccc(Cl)c(Cl)c3)cc2)cc1.O=C(O)C(F)(F)F = Not Active

Hi! What's the reported inhibition (INH) for `N=C(N)Nc1ccc(CNC(=O)[C@@H](NC(=O)c2ccc(OCc3ccccc3)cc2)c2ccc(OCc3ccccc3)cc2)cc1.O=C(O)C(F)(F)F` on Trypsin (Homo sapiens, UniProt P07477+P07478+P35030)?
Not Active

Recall the recorded inhibition (INH) for `CCCCCC(=O)N[C@H](C(=O)NCc1ccc(NC(=N)N)cc1)c1ccc(OCc2ccc(C(C)(C)C)cc2)cc1.O=C(O)C(F)(F)F` with Trypsin (Homo sapiens, UniProt P07477+P07478+P35030) and state it.
Not Active

Item: `CCCCCC(=O)N[C@H](C(=O)NCc1ccc(CN(C)C)cc1)c1ccc(OCc2ccccc2)cc1` Test system: Trypsin (Homo sapiens, UniProt P07477+P07478+P35030) Read-out: inhibition (INH) Value: ?
Not Active
